Ref: patent US9776972B2

Biological target: human PRMT8 (Homo sapiens, UniProt Q9NR22)
Sequence (Q9NR22 whole entry): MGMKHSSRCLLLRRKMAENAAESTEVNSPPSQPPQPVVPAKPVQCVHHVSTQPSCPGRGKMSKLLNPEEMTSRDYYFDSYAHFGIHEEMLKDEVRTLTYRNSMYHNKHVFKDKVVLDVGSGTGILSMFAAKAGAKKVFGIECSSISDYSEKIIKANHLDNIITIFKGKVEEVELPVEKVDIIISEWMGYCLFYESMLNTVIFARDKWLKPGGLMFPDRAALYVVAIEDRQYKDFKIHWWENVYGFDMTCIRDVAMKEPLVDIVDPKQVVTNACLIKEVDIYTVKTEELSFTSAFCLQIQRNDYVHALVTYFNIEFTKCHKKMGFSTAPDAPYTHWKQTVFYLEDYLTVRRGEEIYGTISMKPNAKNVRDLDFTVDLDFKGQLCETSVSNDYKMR
Experiment: PRMT8 Biochemical Assay (3H-SAM Flashplate, peptide substrate)
Settings: single experiment or average of multiple experiments
Source text: S-adenosylmethionine (SAM), S-adenosylhomocysteine (SAH), bicine, Tween20, dimethylsulfoxide (DMSO), bovine skin gelatin (BSG), isopropyl-β-D-thiogalactopyranoside (IPTG), and Tris(2-carboxyethyl)phosphine hydrochloride solution (TCEP) were purchased from Sigma-Aldrich at the highest level of purity possible. ^3H-SAM was purchase from American Radiolabeled Chemicals with a specific activity of 80 Ci/mmol. 384-well streptavidin Flashplates were purchased from PerkinElmer. […]
Lab note: cut-off is 400 nM. Strictly less in IC50 is True. Exactly 400 nM or more is False.

[[record]]
smiles_entry = "CC(C)CC(=O)N1CCN(c2ccc(-c3n[nH]cc3CN(C)CCN)cc2)CC1"
subject_of_test = "human PRMT8 (Homo sapiens, UniProt Q9NR22)"
category = "False"

[[record]]
smiles_entry = "CN(CCN)Cc1c[nH]nc1-c1ccc(C2CCOCC2)cc1"
subject_of_test = "human PRMT8 (Homo sapiens, UniProt Q9NR22)"
category = "True"

[[record]]
smiles_entry = "Cc1ccc(-c2n[nH]cc2CN(C)CCN)cc1Cl"
subject_of_test = "human PRMT8 (Homo sapiens, UniProt Q9NR22)"
category = "True"

[[record]]
smiles_entry = "CNCCN(C)Cc1c[nH]nc1-c1cccc(C(C)=O)c1"
subject_of_test = "human PRMT8 (Homo sapiens, UniProt Q9NR22)"
category = "False"

[[record]]
smiles_entry = "CC(C)c1ccc(-c2c[nH]nc2CN(C)CCN)cc1"
subject_of_test = "human PRMT8 (Homo sapiens, UniProt Q9NR22)"
category = "False"

[[record]]
smiles_entry = "CNCCN(C)Cc1c[nH]nc1-c1ccc(OCC2CC2)c(F)c1"
subject_of_test = "human PRMT8 (Homo sapiens, UniProt Q9NR22)"
category = "True"

[[record]]
smiles_entry = "CN(CCN)Cc1c(-c2ccc(C#N)cc2)ncn1C"
subject_of_test = "human PRMT8 (Homo sapiens, UniProt Q9NR22)"
category = "False"

[[record]]
smiles_entry = "CC(C)Oc1ccc(-c2n[nH]cc2CN(C)CCN)cc1F"
subject_of_test = "human PRMT8 (Homo sapiens, UniProt Q9NR22)"
category = "True"

[[record]]
smiles_entry = "CNCCN(C)Cc1c[nH]nc1-c1ccc(OC2CCOCC2)c(F)c1"
subject_of_test = "human PRMT8 (Homo sapiens, UniProt Q9NR22)"
category = "True"

[[record]]
smiles_entry = "CNCCN(C)Cc1c[nH]nc1-c1ccc(C(=O)c2ccccc2)cc1"
subject_of_test = "human PRMT8 (Homo sapiens, UniProt Q9NR22)"
category = "True"

